- PROCEDURE SUMMARY: Particle size distribution by Malvern Mastersizer S particle size analyzer
- Assay type: physicochemical
- COND: after milling 1 hour, Specac Specamill, three agate balls, maximum amplitude; listed as Cinacalcet hydrochloride from Example 9, hydrochloride
TEST READOUT: AFTER MILLING D[v, 0..5] (µm)
The figure you give is taken to be in µm; do not add the unit.

Query: AFTER MILLING D[v, 0..5]; subject: C[C@@H](NCCCc1cccc(C(F)(F)F)c1)c1cccc2ccccc12.Cl [Example 9, cinacalcet hydrochloride] 25.1

###

- PROCEDURE SUMMARY: Particle size distribution by Malvern Mastersizer S particle size analyzer
- Format: physicochemical
- COND: crystals as isolated after crystallization from isobutyl acetate and drying; by volume, mean of nine readings; hydrochloride
TEST READOUT: particle size D[v, 0.9]

The cases that follow already have their particle size D[v, 0.9] on record.
{"columns": ["COMPOUND", "particle size D[v, 0.9]"],
 "data": [
  ["C[C@@H](NCCCc1cccc(C(F)(F)F)c1)c1cccc2ccccc12.Cl [Example 3, cinacalcet hydrochloride]", "387.9 μm"],
  ["C[C@@H](NCCCc1cccc(C(F)(F)F)c1)c1cccc2ccccc12.Cl [Example 2, cinacalcet hydrochloride]", "86.1 μm"]
]}

For the next question, use this compound.
Query: particle size D[v, 0.9]; subject: C[C@@H](NCCCc1cccc(C(F)(F)F)c1)c1cccc2ccccc12.Cl [Example 1, cinacalcet hydrochloride] 95.4 μm

###

- PROCEDURE SUMMARY: Particle size distribution by Malvern Mastersizer S particle size analyzer
- Type: physicochemical
- COND: before milling; listed as Cinacalcet hydrochloride from Example 7, hydrochloride
TEST READOUT: BEFORE MILLING D[v, 0..5] (µm)
The figure you give is taken to be in µm; do not add the unit.

Query: BEFORE MILLING D[v, 0..5]; subject: C[C@@H](NCCCc1cccc(C(F)(F)F)c1)c1cccc2ccccc12.Cl [Example 7, cinacalcet hydrochloride] 70.3

###

- PROCEDURE SUMMARY: Particle size distribution by Malvern Mastersizer S particle size analyzer
- Format: physicochemical
- COND: after milling 1 hour, Specac Specamill, three agate balls, maximum amplitude; listed as Cinacalcet hydrochloride from Example 7, hydrochloride
TEST READOUT: AFTER MILLING D[v, 0.9] (µm)
The figure you give is taken to be in µm; do not add the unit.

Query: AFTER MILLING D[v, 0.9]; subject: C[C@@H](NCCCc1cccc(C(F)(F)F)c1)c1cccc2ccccc12.Cl [Example 7, cinacalcet hydrochloride] 83.3

###

- PROCEDURE SUMMARY: Particle size distribution by Malvern Mastersizer S particle size analyzer
- Type: physicochemical
- COND: after milling 1 hour, Specac Specamill, three agate balls, maximum amplitude; listed as Cinacalcet hydrochloride from Example 9, hydrochloride
- Protocol: The particle size for cinacalcet hydrochloride was measured using a Malvern Mastersizer S particle size analyzer with an MS1 Small Volume Sample Dispersion Unit stirred cell. A 300RF mm lens and a beam length of 2.4 mm were used. […] Nine repeated readings of the volume distributions were taken. For characterization, the values of D50 and D90 (by volume) were selected and reported as the mean of the nine values measured.
TEST READOUT: AFTER MILLING D[v, 0.9] (µm)
The figure you give is taken to be in µm; do not add the unit.

Query: AFTER MILLING D[v, 0.9]; subject: C[C@@H](NCCCc1cccc(C(F)(F)F)c1)c1cccc2ccccc12.Cl [Example 9, cinacalcet hydrochloride] 76.7

Ref: patent US20090275780A1
